Experimental Details: Brain levels (kp and kpu,u) after oral administration
Format: in vivo, CDI mice
Assay Context: CDI, mouse, brain / plasma, po, 20 mg/kg, mice, 20 mpk PO, whole brain AUC over 24 h divided by plasma AUC; read-out: kp (code)
Measured Kp at 24 h values are reported for all entries that follow.
Measurement Type: Kp at 24 h

compound="Cc1cc(O)c(-c2nnc(N[C@H]3COC(C)(C)C3)c3cnccc23)c(F)c1 (single isomer, unassigned) [Compound 21*]" recorded_value="> 0.3"
compound="Cc1ccc(-c2nnc(N[C@H]3CCOCC3(C)C)c3cnccc23)c(O)c1 (single isomer, unassigned) [Compound 13]" recorded_value="> 0.3"
compound="Cc1ccc(-c2nnc(N[C@H]3CCOC(C)(C)C3)c3cnccc23)c(O)c1 (single isomer, unassigned) [Compound 14]" recorded_value="> 0.3"

Origin of the recorded values: patent US12331048B2
